test: Selectivity index, ratio of LD50 for human A549 cells to MIC80 for Cryptococcus neoformans H99; assay type: toxicity; conditions: read-out: Selectivity Index
Hi there, I'd appreciate the recorded selectivity ratio for every entry that follows.

Memo: O=C(N/N=C/c1cc(Br)cc(Br)c1O)c1cc(Br)c(Br)s1 , reported selectivity ratio: > 32

The value of selectivity ratio measured for the compound O=C(N/N=C/c1ccc(Br)cc1O)c1cc(Br)c(Br)s1 turned out to be > 533

selectivity ratio recorded for this compound, O=C(N/N=C/c1ccc(Br)cc1O)c1csc(Br)c1 , is > 128

Item: O=C(N/N=C/c1cc(Br)ccc1O)c1csc(Br)c1 | selectivity ratio: > 1070

The value of selectivity ratio measured for the compound O=C(N/N=C/c1ccc(Br)cc1O)c1ccc(Br)o1 turned out to be > 533
